Recorded IC50, one value per entry.
Molecular target: UniProt:P30874
Sequence (P30874 whole entry): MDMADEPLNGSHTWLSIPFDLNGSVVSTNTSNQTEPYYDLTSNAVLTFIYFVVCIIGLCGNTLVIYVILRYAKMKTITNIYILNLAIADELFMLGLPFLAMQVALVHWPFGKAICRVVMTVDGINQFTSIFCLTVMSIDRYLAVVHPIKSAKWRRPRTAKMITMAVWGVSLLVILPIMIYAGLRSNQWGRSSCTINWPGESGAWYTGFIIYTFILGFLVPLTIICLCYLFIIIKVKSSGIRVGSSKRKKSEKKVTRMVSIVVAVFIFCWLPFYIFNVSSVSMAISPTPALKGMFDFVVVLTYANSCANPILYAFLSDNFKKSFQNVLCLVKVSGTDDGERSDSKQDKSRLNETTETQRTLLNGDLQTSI
Assay: Displacement of [125I]-[LTT]-SS28 from human SST2 receptor expressed in Chinese hamster CCL-39 cells after 2 hrs by autoradiographic analysis
Reply with just the number (in µM).

Worked cases, answers included:
1. CCCC[C@H](NC(=O)CNC(=O)[C@H](C)NC(=O)CN1CCN(CC(=O)O)CCN(CC(=O)O)CCN(CC(=O)O)CC1)C(=O)N[C@@H](CCCCN)C(=O)N[C@@H]1CSSC[C@@H](C(=O)N[C@@H](CO)C(=O)NCC(=O)O)NC(=O)[C@H](Cc2ccccc2)NC(=O)[C@H]([C@@H](C)O)NC(=O)[C@H](CCCCN)NC(=O)[C@@H](Cc2c[nH]c3ccccc23)NC(=O)[C@H](Cc2ccccc2)NC(=O)[C@H](Cc2ccccc2)NC1=O = 0.05
2. C[C@@H](O)[C@@H]1NC(=O)[C@H](CCCCN)NC(=O)[C@@H](Cc2c[nH]c3ccccc23)NC(=O)[C@H](Cc2ccccc2)NC(=O)[C@H](Cc2ccccc2)NC(=O)[C@@H](NC(=O)[C@H](CCCNC(=N)N)NC(=O)COCCOCCNC(=O)CN2CCN(CC(=O)O)CCN(CC(=O)O)CCN(CC(=O)O)CC2)CSSC[C@@H](C(=O)O)NC(=O)[C@H](CO)NC(=O)[C@H](Cc2ccccc2)NC1=O = 0.00076
3. C[C@H](NC(=O)CN1CCN(CC(=O)O)CCN(CC(=O)O)CCN(CC(=O)O)CC1)C(=O)NCC(=O)N[C@H]1CSSC[C@H](C(=O)O)NC(=O)[C@H](CO)NC(=O)[C@H]([C@@H](C)O)NC(=O)[C@H](Cc2ccccc2)NC(=O)[C@H]([C@@H](C)O)NC(=O)[C@H](CCCCN)NC(=O)[C@@H](Cc2c[nH]c3ccccc23)NC(=O)[C@H](Cc2ccccc2)NC(=O)[C@H](Cc2ccccc2)NC(=O)[C@H](CC(N)=O)NC(=O)[C@H](CCCNC(=N)N)NC1=O = 0.0016
4. CCCC[C@H](NC(=O)CNC(=O)[C@H](C)NC(=O)CN1CCN(CC(=O)O)CCN(CC(=O)O)CCN(CC(=O)O)CC1)C(=O)N[C@@H](CCCCN)C(=O)N[C@@H](CC(N)=O)C(=O)N[C@H]1CSSC[C@@H](C(=O)N[C@H](C(=O)N[C@@H](CO)C(=O)NCC(=O)O)[C@@H](C)O)NC(=O)[C@H]([C@@H](C)O)NC(=O)[C@H](CCCCN)NC(=O)[C@@H](Cc2c[nH]c3ccccc23)NC(=O)[C@H](Cc2ccc(O)cc2)NC1=O = 0.946
5. C[C@@H](O)[C@@H]1NC(=O)[C@H](CCCCN)NC(=O)[C@@H](Cc2c[nH]c3ccccc23)NC(=O)[C@H](Cc2ccccc2)NC(=O)[C@H](Cc2ccccc2)NC(=O)[C@@H](NC(=O)CNC(=O)COCCOCCNC(=O)CN2CCN(CC(=O)O)CCN(CC(=O)O)CCN(CC(=O)O)CC2)CSSC[C@@H](C(=O)O)NC(=O)[C@H](CO)NC(=O)[C@H](Cc2ccccc2)NC1=O = 0.001

// moving on: another record for IC50
Answer with the recorded IC50 for the compound listed here: `CCCC[C@H](NC(=O)CNC(=O)[C@H](C)NC(=O)CN1CCN(CC(=O)O)CCN(CC(=O)O)CCN(CC(=O)O)CC1)C(=O)N[C@@H](CCCCN)C(=O)N[C@H]1CSSC[C@@H](C(=O)N[C@@H](CO)C(=O)NCC(=O)O)NC(=O)[C@H](Cc2ccccc2)NC(=O)[C@H]([C@@H](C)O)NC(=O)[C@H](CCCCN)NC(=O)[C@@H](Cc2c[nH]c3ccccc23)NC(=O)[C@H](Cc2ccccc2)NC(=O)[C@H](Cc2ccccc2)NC1=O`
0.011

---

Target: Somatostatin receptor type 3 (Homo sapiens, UniProt P32745)
Sequence (P32745 whole entry): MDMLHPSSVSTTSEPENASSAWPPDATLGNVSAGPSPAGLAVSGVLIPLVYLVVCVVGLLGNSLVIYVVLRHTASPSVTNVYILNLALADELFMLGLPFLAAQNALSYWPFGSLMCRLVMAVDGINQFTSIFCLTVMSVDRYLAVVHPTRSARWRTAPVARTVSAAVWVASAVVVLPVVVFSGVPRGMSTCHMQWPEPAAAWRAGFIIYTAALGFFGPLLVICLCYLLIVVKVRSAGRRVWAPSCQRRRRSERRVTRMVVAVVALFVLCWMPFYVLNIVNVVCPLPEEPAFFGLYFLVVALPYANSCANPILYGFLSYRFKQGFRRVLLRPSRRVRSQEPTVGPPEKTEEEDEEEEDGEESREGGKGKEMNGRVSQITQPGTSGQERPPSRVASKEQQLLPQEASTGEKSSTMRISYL
Assay: Displacement of [125I]-[LTT]-SS28 from human SST3 receptor expressed in Chinese hamster CCL-39 cells after 2 hrs by autoradiographic analysis
Observation type: IC50 (nM)
Reply with just the number (in nM).

1. C[C@@H](O)[C@@H]1NC(=O)[C@H](CCCCN)NC(=O)[C@@H](Cc2c[nH]c3ccccc23)NC(=O)[C@H](Cc2ccccc2)NC(=O)[C@H](Cc2ccccc2)NC(=O)[C@@H](NC(=O)[C@H](CCCNC(=N)N)NC(=O)COCCOCCNC(=O)CN2CCN(CC(=O)O)CCN(CC(=O)O)CCN(CC(=O)O)CC2)CSSC[C@@H](C(=O)O)NC(=O)[C@H](CO)NC(=O)[C@H](Cc2ccccc2)NC1=O = 24
2. CCCC[C@H](NC(=O)CNC(=O)[C@H](C)NC(=O)CN1CCN(CC(=O)O)CCN(CC(=O)O)CCN(CC(=O)O)CC1)C(=O)N[C@@H](CCCCN)C(=O)N[C@H]1CSSC[C@@H](C(=O)N[C@@H](CO)C(=O)NCC(=O)O)NC(=O)[C@H](Cc2ccccc2)NC(=O)[C@H]([C@@H](C)O)NC(=O)[C@H](CCCCN)NC(=O)[C@@H](Cc2c[nH]c3ccccc23)NC(=O)[C@H](Cc2ccccc2)NC(=O)[C@H](Cc2ccccc2)NC1=O = 16
3. C[C@H](NC(=O)CN1CCN(CC(=O)O)CCN(CC(=O)O)CCN(CC(=O)O)CC1)C(=O)NCC(=O)N[C@H]1CSSC[C@H](C(=O)O)NC(=O)[C@H](CO)NC(=O)[C@H]([C@@H](C)O)NC(=O)[C@H](Cc2ccccc2)NC(=O)[C@H]([C@@H](C)O)NC(=O)[C@H](CCCCN)NC(=O)[C@@H](Cc2c[nH]c3ccccc23)NC(=O)[C@H](Cc2ccccc2)NC(=O)[C@H](Cc2ccccc2)NC(=O)[C@H](CC(N)=O)NC(=O)[C@H](CCCNC(=N)N)NC1=O = 16
4. C[C@@H](O)[C@@H]1NC(=O)[C@H](CCCCN)NC(=O)[C@@H](Cc2c[nH]c3ccccc23)NC(=O)[C@H](Cc2ccccc2)NC(=O)[C@H](Cc2ccccc2)NC(=O)[C@@H](NC(=O)CNC(=O)COCCOCCNC(=O)CN2CCN(CC(=O)O)CCN(CC(=O)O)CCN(CC(=O)O)CC2)CSSC[C@@H](C(=O)O)NC(=O)[C@H](CO)NC(=O)[C@H](Cc2ccccc2)NC1=O = 18

// moving on: another record for IC50
Give IC50 for `CCCC[C@H](NC(=O)CNC(=O)[C@H](C)NC(=O)CN1CCN(CC(=O)O)CCN(CC(=O)O)CCN(CC(=O)O)CC1)C(=O)N[C@@H](CCCCN)C(=O)N[C@@H]1CSSC[C@@H](C(=O)N[C@@H](CO)C(=O)NCC(=O)O)NC(=O)[C@H](Cc2ccccc2)NC(=O)[C@H]([C@@H](C)O)NC(=O)[C@H](CCCCN)NC(=O)[C@@H](Cc2c[nH]c3ccccc23)NC(=O)[C@H](Cc2ccccc2)NC(=O)[C@H](Cc2ccccc2)NC1=O` tested on Somatostatin receptor type 3 (Homo sapiens, UniProt P32745).
98

---

Target: Somatostatin receptor type 4 (Homo sapiens)
Sequence (P31391 whole entry): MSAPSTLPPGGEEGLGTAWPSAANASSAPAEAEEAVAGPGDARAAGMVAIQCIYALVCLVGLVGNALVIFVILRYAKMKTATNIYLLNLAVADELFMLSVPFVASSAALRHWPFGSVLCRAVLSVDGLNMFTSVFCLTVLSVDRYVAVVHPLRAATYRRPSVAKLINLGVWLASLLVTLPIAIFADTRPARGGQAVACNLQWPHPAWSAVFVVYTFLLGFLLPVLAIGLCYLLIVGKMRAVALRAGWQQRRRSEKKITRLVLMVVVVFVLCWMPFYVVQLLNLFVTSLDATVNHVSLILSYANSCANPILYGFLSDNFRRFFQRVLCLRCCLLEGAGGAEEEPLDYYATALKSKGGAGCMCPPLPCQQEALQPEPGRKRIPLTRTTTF
Assay: Displacement of [125I]-[LTT]-SS28 from human SST4 receptor expressed in Chinese hamster CCL-39 cells after 2 hrs by autoradiographic analysis
Observation type: IC50 (nM)
Reply with just the number (in nM).

Worked cases, answers included:
1. CCCC[C@H](NC(=O)CNC(=O)[C@H](C)NC(=O)CN1CCN(CC(=O)O)CCN(CC(=O)O)CCN(CC(=O)O)CC1)C(=O)N[C@@H](CCCCN)C(=O)N[C@@H]1CSSC[C@@H](C(=O)N[C@@H](CO)C(=O)NCC(=O)O)NC(=O)[C@H](Cc2ccccc2)NC(=O)[C@H]([C@@H](C)O)NC(=O)[C@H](CCCCN)NC(=O)[C@@H](Cc2c[nH]c3ccccc23)NC(=O)[C@H](Cc2ccccc2)NC(=O)[C@H](Cc2ccccc2)NC1=O = 5.4
2. C[C@H](NC(=O)CN1CCN(CC(=O)O)CCN(CC(=O)O)CCN(CC(=O)O)CC1)C(=O)NCC(=O)N[C@H]1CSSC[C@H](C(=O)O)NC(=O)[C@H](CO)NC(=O)[C@H]([C@@H](C)O)NC(=O)[C@H](Cc2ccccc2)NC(=O)[C@H]([C@@H](C)O)NC(=O)[C@H](CCCCN)NC(=O)[C@@H](Cc2c[nH]c3ccccc23)NC(=O)[C@H](Cc2ccccc2)NC(=O)[C@H](Cc2ccccc2)NC(=O)[C@H](CC(N)=O)NC(=O)[C@H](CCCNC(=N)N)NC1=O = 2.8
3. C[C@@H](O)[C@@H]1NC(=O)[C@H](CCCCN)NC(=O)[C@@H](Cc2c[nH]c3ccccc23)NC(=O)[C@H](Cc2ccccc2)NC(=O)[C@H](Cc2ccccc2)NC(=O)[C@@H](NC(=O)[C@H](CCCNC(=N)N)NC(=O)COCCOCCNC(=O)CN2CCN(CC(=O)O)CCN(CC(=O)O)CCN(CC(=O)O)CC2)CSSC[C@@H](C(=O)O)NC(=O)[C@H](CO)NC(=O)[C@H](Cc2ccccc2)NC1=O = 0.9

Answer with the recorded IC50 for the molecule listed here: `C[C@@H](O)[C@@H]1NC(=O)[C@H](CCCCN)NC(=O)[C@@H](Cc2c[nH]c3ccccc23)NC(=O)[C@H](Cc2ccccc2)NC(=O)[C@H](Cc2ccccc2)NC(=O)[C@@H](NC(=O)CNC(=O)COCCOCCNC(=O)CN2CCN(CC(=O)O)CCN(CC(=O)O)CCN(CC(=O)O)CC2)CSSC[C@@H](C(=O)O)NC(=O)[C@H](CO)NC(=O)[C@H](Cc2ccccc2)NC1=O`
1.2

Answer with the recorded IC50 for the molecule listed here: `CCCC[C@H](NC(=O)CNC(=O)[C@H](C)NC(=O)CN1CCN(CC(=O)O)CCN(CC(=O)O)CCN(CC(=O)O)CC1)C(=O)N[C@@H](CCCCN)C(=O)N[C@H]1CSSC[C@@H](C(=O)N[C@@H](CO)C(=O)NCC(=O)O)NC(=O)[C@H](Cc2ccccc2)NC(=O)[C@H]([C@@H](C)O)NC(=O)[C@H](CCCCN)NC(=O)[C@@H](Cc2c[nH]c3ccccc23)NC(=O)[C@H](Cc2ccccc2)NC(=O)[C@H](Cc2ccccc2)NC1=O`
4

Where these numbers come from: ChEMBL document CHEMBL3120056
